Tested on: Human papillomavirus type 1a E7 protein (residues 1-88)
method.description: HPV1a E7 small-molecule binders, primary screen, biochemical, small-molecule microarray, residues 1-88, 635 nm (AID 1129)
protocol.conditions: small-molecule microarray binding, fluorescence 635 nm; higher = more signal
Threshold rule: composite z-score greater than or equal to 0.9 is true (1); below that, false (0).

Example results:
O=C(CS)NCCCCCNC(=O)[C@H]1C[C@H]2C(=O)N[C@@H](Cc3ccccc3)C(=O)N2[C@H]1c1cccc(OCCO)c1 | true (1)
C#C[C@H](O[Si](C#CCCCCCC)(C(C)C)C(C)C)c1ccccc1 | false (0)

Is reported composite z-score greater than or equal to 0.9 here: O=C1O[C@@H](c2ccccc2)[C@@H](c2ccccc2)N2[C@@H](c3ccc(O)cc3)[C@]3(C(=O)Nc4ccccc43)[C@@H](C(=O)N3CCCCCCC3)[C@H]12
true (1)

Quick check: does O=C1O[C@@H](c2ccccc2)[C@@H](c2ccccc2)N2[C@@H](c3ccc(O)cc3)[C@]3(C(=O)Nc4ccc(C#CCCO)cc43)[C@@H](C(=O)O)[C@H]12 have composite z-score greater than or equal to 0.9?
false (0)

Reported composite z-score reaches at least 0.9 for [N-]=[N+]=NCc1ccccc1[C@@H]1OC(c2ccc(OCCCO)cc2)=N[C@]1(Cc1ccccc1)C(=O)O ?
false (0)

Form field: composite z-score at least 0.9? Entry: CCOC(=O)C1=CC[C@@H](c2cccc(Cl)c2)N(S(=O)(=O)c2ccc(C)cc2)[C@H]1c1ccc(C#N)cc1
true (1)

Determine whether measured composite z-score meets or exceeds 0.9 for C/C=C/[C@H](CCn1cc([C@H](O)c2ccccc2)nn1)[Si](C)(C)c1ccc(OC)cc1
false (0)

For this compound, is measured composite z-score 0.9 or higher? CN1C(=O)C2C=CC(C(O)C3=C[C@H]4C[C@@H](C3)C4(C)C)N(Nc3ccc([N+](=O)[O-])cc3[N+](=O)[O-])C2C1=O (stereo not given in full)
true (1)

Decide: is the reported value of composite z-score for CN1C(=O)C2C(C1=O)C1C=C(c3ccc(CO)cc3)C2C(C2CC2)N1Cc1cc2c(cc1Br)OCO2 (stereo not given) equal to or greater than 0.9?
true (1)
